Biological target: T1, 4H2961-AA
T1 chain: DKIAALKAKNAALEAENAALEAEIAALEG
Experiment: two-hybrid library CCmax;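 further: natural log of median RNA to DNA barcode read ratio; higher means stronger binding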
Conditions: mean of both orientations

# Binder, interaction score
measured = [
    ("DENAALKAEIAALEAENAALEAKIAALKG [4H1558-AA]", -1.19),
    ("DKIAALKAENAALKAEIAALEAKNAALKG [4H2760-AA]", -1.97),
    ("DKIAALKAEIAALEAKIAALKAENAALKG [4H2604-AA]", -1.69),
    ("DENAALKAKIAALKAENAALEAKIAALKG [4H1878-AA]", -1.54),
]
